// aptazyme ON/OFF ratio lookup, one value per entry
B1: Pistol ribozyme (parent)
chain: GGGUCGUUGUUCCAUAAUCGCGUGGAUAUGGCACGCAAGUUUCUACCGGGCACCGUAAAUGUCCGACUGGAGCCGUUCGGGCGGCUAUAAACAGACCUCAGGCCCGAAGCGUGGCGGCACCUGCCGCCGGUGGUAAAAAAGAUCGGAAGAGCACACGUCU

- Variants of: B1
- Assay explanation: aptazyme ON/OFF ratio, guanine; higher = stronger switching; co-transcriptional cleavage with and without guanine
Value kind: aptazyme ON/OFF ratio

[
  {
    "Mutation spec": "U8G G9U U10G U11C C12G",
    "Recorded result": 1.03
  },
  {
    "Mutation spec": "U7C U8A U10C C12G",
    "Recorded result": 1.63
  },
  {
    "Mutation spec": "U7A U8C G9A U10C U11C C12U C13A",
    "Recorded result": 1.05
  },
  {
    "Mutation spec": "U7C G9A U10C U11C C12U",
    "Recorded result": 1.05
  }
]
